Data provenance: PubChem BioAssay

- target_or_system: Torsin-1A-interacting protein 1 (Homo sapiens) (UniProt Q5JTV8)
- Sequence (Q5JTV8 whole entry, looked up): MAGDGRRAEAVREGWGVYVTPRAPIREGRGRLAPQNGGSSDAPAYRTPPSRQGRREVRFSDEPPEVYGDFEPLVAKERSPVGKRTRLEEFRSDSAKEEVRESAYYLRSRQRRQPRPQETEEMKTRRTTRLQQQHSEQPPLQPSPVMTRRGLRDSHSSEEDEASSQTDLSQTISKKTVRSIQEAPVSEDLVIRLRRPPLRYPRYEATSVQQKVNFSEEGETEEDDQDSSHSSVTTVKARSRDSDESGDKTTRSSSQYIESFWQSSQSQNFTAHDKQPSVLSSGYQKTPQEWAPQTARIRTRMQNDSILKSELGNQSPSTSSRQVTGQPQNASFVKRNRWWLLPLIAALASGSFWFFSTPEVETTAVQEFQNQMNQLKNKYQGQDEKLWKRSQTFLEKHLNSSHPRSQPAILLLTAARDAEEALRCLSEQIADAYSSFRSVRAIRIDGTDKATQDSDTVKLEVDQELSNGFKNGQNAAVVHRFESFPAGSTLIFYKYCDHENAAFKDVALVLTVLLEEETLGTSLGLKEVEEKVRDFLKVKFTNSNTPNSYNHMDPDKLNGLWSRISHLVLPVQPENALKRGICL
- assay_explanation: compound microarray binding of lysate hLAP1 – cell lysate, small-molecule microarray, COS7 lysate, 635/667 nm fluorescence, primary screen (AID 1116)
- run_parameters: 635 nm fluorescence, higher = more signal
assay_readout: composite z-score
Would you mind answering with just the numeric figure?

Observe how each entry below is paired with its result.
- molecule: "C=C(C(=O)CC[C@@H](OC(C)=O)c1ccc(OCCO)cc1)C(C)C"
  composite z-score: 0.159
- molecule: "[N-]=[N+]=NCc1ccccc1[C@H]1OC(c2ccc(OCCCO)cc2)=N[C@@]1(Cc1ccccc1)C(=O)O"
  composite z-score: 0.875
- molecule: "[N-]=[N+]=NCc1ccccc1C[C@]1(C(=O)NCC(O)CO)COC(c2ccc(OCCCO)cc2)=N1 (some centres not stated)"
  composite z-score: 3.34
- molecule: "COc1ccc(C(=O)Nc2cccc(CN3C(=O)[C@@]4(O[C@@H](CC(=O)N5Cc6ccccc6C[C@H]5CO)[C@H]([Si](C)(C)c5ccc(OC)cc5)[C@H]4C)c4ccccc43)c2)cc1"
  composite z-score: 0.965

Q) Return reported composite z-score. Input molecule: COCCCNC(=O)[C@@]1(Sc2ccc(C)cc2)CC(=O)N(Cc2ccccc2)[C@@H]1c1ccc(CO)cc1
A) -0.36

Q) Return reported composite z-score. Input molecule: COC(=O)[C@@]1(Cc2ccc(OC)cc2)[C@H]2c3cc(C(=O)N(C)C)n(CCSCCO)c3C[C@H]2CN1C(=O)c1ccccc1
A) 0.904

Q) Return reported composite z-score. Input molecule: CN1C(=O)C2C(C1=O)C1C=C(c3ccc(CO)cc3)C2C(C2CC2)N1Cc1sc2ccccc2c1Cl (configuration not stated)
A) 2.06

* * *

- target_or_system: Calmodulin-1 (Homo sapiens)
- assay_explanation: small molecules binding calmodulin-1 with EGTA – biochemical, small-molecule microarray, Cy5-labelled CALM1, profiling panel (AID 1111);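 note: labelled calmodulin applied in Tris saline Tween buffer holding calcium plus EGTA and DTT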
- run_parameters: Cy5-CALM1 binding fluorescence, higher = more signal
assay_readout: composite z-score

Observe how each entry below is paired with its result.
- compound: "CC(=O)n1cc(C(O)C2C=CC3C(=O)N(c4ccccc4)C(=O)C3N2Nc2ccc(C#N)cc2)c2ccccc21 (configuration not stated)"
  composite z-score: 0.449
- compound: "COc1ccc([Si](C)(C)[C@H]2[C@H](CC(=O)N3CCC[C@H]3CO)O[C@@]3(C(=O)N(Cc4cccc(N5CCC5=O)c4)c4ccccc43)[C@@H]2C)cc1"
  composite z-score: -0.105
- compound: "O=c1cccc(-c2ccc3ccccc3c2)o1"
  composite z-score: -0.545

Q) Return reported composite z-score. Input compound: O=C1OCC=C[C@H]2OC34C=CCN(Cc5ccccc5)C(=O)[C@H]3N(CCCO)C(=O)[C@@H]4[C@@H]12 (some centres not stated)
A) 1.19

Q) Return reported composite z-score. Input compound: CCOC1=C2C(c3ccc(C)cc3)N(S(=O)(=O)c3ccc(C)cc3)CC2n2c(=O)n(-c3ccccc3)c(=O)n2C1 (configuration not stated)
A) 0.683

Q) Return reported composite z-score. Input compound: C=C[C@@H](C)[C@@H](OC(=O)Nc1ccc(OC)cc1)c1ccc(O)c2ccccc12
A) -0.27

Q) Return reported composite z-score. Input compound: O=C1O[C@H](c2ccccc2)[C@H](c2ccccc2)N2[C@H]1[C@@H](C(=O)NC[C@H](O)c1ccccc1)[C@]1(C(=O)Nc3ccc(C#CC4(O)CCCCCC4)cc31)[C@H]2c1ccccc1OCCO
A) 0.9

Q) Return reported composite z-score. Input compound: C=CCC(OC(C)=O)[C@@H]1[C@@H](N(Cc2cc3ccccc3o2)C(=O)c2ccc(-c3ccccc3)cc2)c2cc(OCCCO)ccc2N1C(=O)Cc1ccc2ccccc2c1 (some centres not stated)
A) -0.27

* * *

- assay_explanation: probe aNOTCH2 binding on compound microarray – biochemical, small-molecule microarray, 635/667 nm fluorescence, primary screen (AID 1121);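 note: score merges feature fluorescence read at 667 nm with its signal to noise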
- run_parameters: higher = more signal
Respond with MET for composite z-score values of -0.1 and above, NOT MET for values below.

- compound: "CN(C)CCCCNC(=O)[C@@H]1C[C@@H]2C(=O)N[C@@H](CCCCN)C(=O)N2[C@@H]1c1cccc(OCCO)c1"
  category_label: "MET"
- compound: "[N-]=[N+]=NCc1ccccc1C[C@]1(C(=O)NCc2ccccc2)COC(c2ccc(OCCCO)cc2)=N1"
  category_label: "MET"
- compound: "C=C(CCCC)C(=O)CC[C@H](OC(=O)c1ccccc1-c1ccccc1C(=O)O)c1ccc(CO)o1"
  category_label: "NOT MET"
- compound: "Cc1ccc(F)cc1S(=O)(=O)N[C@@H]1CCN(Cc2ccc(C(F)(F)F)cc2)C1"
  category_label: "NOT MET"

Q) Does composite z-score meet or surpass -0.1 for CC(C)(C)OC(=O)CC[C@]1(C(=O)NCC(O)CO)N=C(c2ccc(OCCCO)cc2)O[C@H]1c1ccccc1CN=[N+]=[N-] (stereo partly specified) ?
A) MET

* * *

- Test system: XIP peptide (Xip251-270) binding
- assay_explanation: XIP fragment 251-270 binding compounds – biochemical, small-molecule microarray, fluorescence 635/667 nm, 0.1 µg/mL protein, primary screen (AID 1182)
- run_parameters: fluorescent protein binding, 635 nm, higher = more signal, called active from +8 up or from −8 down
compounds and their reported composite z-score
Would you mind answering with just the numeric figure?

- compound: "CCOC(=O)C[C@H]1[C@H](OC(=O)c2ccccc2-c2ccccc2)[C@@H](NC(=O)c2ccc(-c3ccccc3)cc2)c2cc(OCCCO)ccc2N1C(=O)c1ccccc1"
  assay_readout: "composite z-score"
  recorded_measurement: 0.788
- compound: "[N-]=[N+]=NCc1ccccc1C[C@]1(C(=O)NCc2ccccc2)COC(c2ccc(OCCCO)cc2)=N1"
  assay_readout: "composite z-score"
  recorded_measurement: 0.395
- compound: "O=C1c2ccccc2[C@](Cc2ccccc2I)(C(=O)O)[C@H](c2ccc(CO)cc2)N1Cc1ccccc1C(F)(F)F"
  assay_readout: "composite z-score"
  recorded_measurement: 0.185
- compound: "O=C1OCC=C[C@H]2OC34C=CCN(Cc5ccccc5)C(=O)[C@H]3N(CCCO)C(=O)[C@@H]4[C@@H]12 (stereo not given in full)"
  assay_readout: "composite z-score"
  recorded_measurement: 1.09

Q) Return reported composite z-score. Input compound: CCOC(=O)N1C(c2ccc(OCCCO)cc2)=NC(C(=O)OC)N1C(=O)OCC (stereo not given)
A) 1.43

Q) Return reported composite z-score. Input compound: COCCCNC(=O)[C@@]1(Cc2ccccc2I)c2ccccc2C(=O)N(Cc2ccccc2)[C@H]1c1ccc(CO)cc1
A) 0.433

Q) Return reported composite z-score. Input compound: COC(=O)[C@@]1(Cc2ccc(F)cc2)[C@H]2c3cc(C(=O)N(C)C)n(Cc4ccccn4)c3C[C@H]2CN1C(=O)c1ccccc1
A) -0.0593

Q) Return reported composite z-score. Input compound: CCOC(=O)C=Cc1cccc(OC)c1O
A) 0.0682

Q) Return reported composite z-score. Input compound: CC(C)(C)OC(=O)CC[C@@]1(C(=O)NCC(O)CO)N=C(c2ccc(OCCCO)cc2)O[C@@H]1c1ccccc1 (stereo not given in full)
A) 0.826

Q) Return reported composite z-score. Input compound: O=C1O[C@@H](c2ccccc2)[C@@H](c2ccccc2)N2[C@@H](c3ccc(O)cc3)[C@]3(C(=O)Nc4ccc(C#CCCO)cc43)[C@@H](C(=O)O)[C@H]12
A) 0.665

Q) Return reported composite z-score. Input compound: C=C(C)[C@@H]1CC=C(C(O)C2C=CC3C(=O)N(Cc4ccccc4)C(=O)C3N2n2cnnc2)CC1 (stereo not given in full)
A) -0.137

Q) Return reported composite z-score. Input compound: NC(=O)NCC#Cc1ccc2c(c1)[C@]1(C(=O)N2)[C@H](c2ccccc2OCCO)N2[C@H](c3ccccc3)[C@H](c3ccccc3)OC(=O)[C@H]2[C@@H]1C(=O)N1CCCCCCC1
A) 0.909

Q) Return reported composite z-score. Input compound: O=C(NCC(O)CO)[C@@]1(Cc2ccccc2)COC(c2ccc(OCCCO)cc2)=N1 (stereo not given in full)
A) -0.0623

Q) Return reported composite z-score. Input compound: C[N+](C)(C)CCCC[C@@H]1NC(=O)[C@H]2C[C@@H](C(=O)O)[C@@H](c3cccc(OCCO)c3)N2C1=O
A) 3.68

* * *

- target_or_system: Torsin-1A-interacting protein 2 (Homo sapiens)
- assay_explanation: small molecules binding lysate-expressed LULL1 – cell lysate, human LULL1 lysate, 635/667 nm fluorescence, primary screen (AID 1092);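 note: probe is lysate of COS7 cells overexpressing human LULL1; score merges per-feature 667 nm fluorescence with signal-to-noise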
- run_parameters: small-molecule microarray, hLULL1 lysate binding, 635 nm fluorescence; higher = more signal
compounds and their reported composite z-score

Q) Return reported composite z-score. Input compound: C=CCC(OC(C)=O)[C@@H]1[C@@H](N(Cc2cc3ccccc3o2)C(=O)c2cccc3ccccc23)c2cc(OCCCO)ccc2N1C(=O)Cc1ccc2ccccc2c1 (some centres undefined)
A) 0.797

Q) Return reported composite z-score. Input compound: O=S(=O)(NCCCO)c1ccc(Br)cc1
A) 1.18

Q) Return reported composite z-score. Input compound: C=C(C(=O)CC[C@@H](OC(=O)c1cccnc1)c1ccc(CO)o1)C(C)C
A) 1.97

Q) Return reported composite z-score. Input compound: CCOC(=O)C1=CC[C@@H](c2cccc(Cl)c2)N(S(=O)(=O)c2ccc(C)cc2)[C@H]1c1ccc(C#N)cc1
A) 3.18
